- Tested on: Sweetpotato Whitefly-Crawler (WF) (Bemisia tabaci) (BEMITA)
- measurementProtocol: Insecticidal test for Sweetpotato Whitefly-Crawler (WF) in foliar spray assay on cotton plants
- Type: in vivo
- experimentalParameters: 216 h, 200 ppm foliar spray on cotton plants, graded after 9 days, Abbott corrected % control, read-out: WF 200 ppm, % Control (or Mortality) rating
assayReadout: mortality at 200 ppm

Query block: Can you share its mortality at 200 ppm? I mean this compound: CCN(C(=O)C1CCN(C(=O)c2cccnc2)CC1)c1cn(-c2cccnc2)nc1Cl
Result block: 0 to 80%

Query block: Can you share its mortality at 200 ppm? I mean this compound: CCN(C(=O)C1CCC(=O)C1)c1cn(-c2cncc(F)c2)nc1C (stereo not shown)
Result block: 0 to 80%

Query block: Can you share its mortality at 200 ppm? I mean this compound: CCN(C(=O)CC/C(=N\OCc1ccc(C(F)(F)F)nc1)c1cccs1)c1cn(-c2cccnc2)nc1Cl
Result block: 0 to 80%

Query block: Can you share its mortality at 200 ppm? I mean this compound: CCN(C(=O)C1CN(C(=O)CCC(F)(F)F)C1)c1cn(-c2cccnc2)nc1Cl
Result block: 80 to 100%

Query block: Can you share its mortality at 200 ppm? I mean this compound: CCN(C(=O)CCC(=O)N1CCCCCC1)c1cn(-c2cccnc2)nc1Cl
Result block: 80 to 100%

Query block: Can you share its mortality at 200 ppm? I mean this compound: CCN(C(=O)C1CCN(C(=O)CCC#N)CC1)c1cn(-c2cccnc2)nc1Cl
Result block: < 0%

Query block: Can you share its mortality at 200 ppm? I mean this compound: CCN(C(=O)CCC(=O)N(C)OC)c1cn(-c2cccnc2)nc1Cl
Result block: 80 to 100%

Query block: Can you share its mortality at 200 ppm? I mean this compound: CCN(C(=O)CCN1CCOC1=O)c1cn(-c2cccnc2)nc1Cl
Result block: 80 to 100%

Query block: Can you share its mortality at 200 ppm? I mean this compound: CCN(C(=O)CCC(=O)N(C)CCC(F)(F)F)c1cn(-c2cccnc2)nc1Cl
Result block: 80 to 100%

Query block: Can you share its mortality at 200 ppm? I mean this compound: CCN(C(=O)CCC=NOCCC1CC1(F)F)c1cn(-c2cccnc2)nc1Cl (mixture of isomers)
Result block: 80 to 100%

Query block: Can you share its mortality at 200 ppm? I mean this compound: CCN(C(=O)CC/C(C)=N/O)c1cn(-c2cccnc2)nc1Cl
Result block: 80 to 100%

Query block: Can you share its mortality at 200 ppm? I mean this compound: CCN(C(=O)CC/C(=N\OCCCCC(F)(F)F)c1cccs1)c1cn(-c2cccnc2)nc1Cl
Result block: 0 to 80%

Query block: Can you share its mortality at 200 ppm? I mean this compound: CCN(C(=O)C1CN(C(=O)C(F)(F)F)C1)c1cn(-c2cccnc2)nc1Cl
Result block: 80 to 100%

Query block: Can you share its mortality at 200 ppm? I mean this compound: CCN(C(=O)CC/C(C)=N/OCCCC(F)(F)F)c1cn(-c2cccnc2)nc1Cl
Result block: 80 to 100%

Query block: Can you share its mortality at 200 ppm? I mean this compound: CCN(C(=O)C(C)(C)OC(C)=O)c1cn(-c2cccnc2)nc1Cl
Result block: 0 to 80%

Query block: Can you share its mortality at 200 ppm? I mean this compound: CCN(C(=O)CN1CCCCCC1=O)c1cn(-c2cccnc2)nc1Cl
Result block: 80 to 100%

Query block: Can you share its mortality at 200 ppm? I mean this compound: CCN(C(=O)C1CN(C(=O)CC(F)(F)F)C1)c1cn(-c2cccnc2)nc1Cl
Result block: 0 to 80%

Query block: Can you share its mortality at 200 ppm? I mean this compound: CCN(C(=O)C(C)N(C)C(C)=O)c1cn(-c2cccnc2)nc1Cl (stereo not shown)
Result block: 80 to 100%

Query block: Can you share its mortality at 200 ppm? I mean this compound: CCN(C(=O)C1CN(C(C)=O)C1)c1cn(-c2cccnc2)nc1Cl
Result block: 80 to 100%

Query block: Can you share its mortality at 200 ppm? I mean this compound: CCN(C(=O)CN1CCOC1=O)c1cn(-c2cccnc2)nc1Cl
Result block: 80 to 100%

Query block: Can you share its mortality at 200 ppm? I mean this compound: CCN(C(=O)CCC(=O)NC1CC1C(F)(F)F)c1cn(-c2cccnc2)nc1Cl (stereo not shown)
Result block: 80 to 100%

Query block: Can you share its mortality at 200 ppm? I mean this compound: CCN(C(=O)CCC(=O)NCc1cccc(Cl)c1)c1cn(-c2cccnc2)nc1Cl
Result block: 80 to 100%

Query block: Can you share its mortality at 200 ppm? I mean this compound: CCN(C(=O)CCNC(=O)CC#N)c1cn(-c2cccnc2)nc1Cl
Result block: 80 to 100%

Query block: Can you share its mortality at 200 ppm? I mean this compound: CCN(C(=O)CN(C)C(=O)CCC(F)(F)F)c1cn(-c2cccnc2)nc1Cl
Result block: 80 to 100%

Query block: Can you share its mortality at 200 ppm? I mean this compound: CCN(C(=O)CNC(=O)OC(C)(C)C)c1cn(-c2cccnc2)nc1Cl
Result block: 80 to 100%

Query block: Can you share its mortality at 200 ppm? I mean this compound: CCN(C(=O)CC/C(=N/OCCCC(F)(F)F)c1cccs1)c1cn(-c2cccnc2)nc1Cl
Result block: 0 to 80%

Query block: Can you share its mortality at 200 ppm? I mean this compound: CCN(C(=O)CCNC(=O)Cc1ccc(F)cc1)c1cn(-c2cccnc2)nc1Cl
Result block: 80 to 100%

Query block: Can you share its mortality at 200 ppm? I mean this compound: CCN1CC(CCC(=O)N(CC)c2cn(-c3cccnc3)nc2Cl)C1=O (stereo not shown)
Result block: 80 to 100%

From: patent US9523100B2
